# tested.system: Arginase-2, mitochondrial (Homo sapiens) (UniProt P78540)
# Sequence (P78540 whole entry): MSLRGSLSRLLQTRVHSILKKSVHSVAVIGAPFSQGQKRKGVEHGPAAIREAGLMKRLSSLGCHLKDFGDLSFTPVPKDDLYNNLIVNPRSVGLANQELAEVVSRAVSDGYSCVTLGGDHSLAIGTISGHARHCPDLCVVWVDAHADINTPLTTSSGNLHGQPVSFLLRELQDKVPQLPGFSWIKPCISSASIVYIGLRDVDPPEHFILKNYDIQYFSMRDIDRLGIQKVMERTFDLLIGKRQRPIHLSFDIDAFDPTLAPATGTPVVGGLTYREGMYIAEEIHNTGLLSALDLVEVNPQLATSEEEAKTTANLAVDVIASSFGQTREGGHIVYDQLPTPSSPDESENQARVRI
# experimental.details: in vitro enzyme assay to detect the production of urea directly proportional to the activity of Arginase II
# Type: functional
# Parameters: scale not given: in the data most compounds retested in dose-response had high values
# experimental.conditions: 33.3 µM
In this section we review reported Percent Effect values for a set of compounds.
Number in %, nothing else.

Take a look at these entries with their results.
compound: FC1(F)CCN(Cc2cccnc2)CC12CCN(c1ccccn1)C2 (stereo not drawn)
observed.result: 17.5

compound: CCc1noc(C)c1C(=O)N1CCCC1Cn1nc(C)cc1C (stereo not drawn)
observed.result: 1.8

compound: CC(O)CN1CCC(CNCc2ccc(S(C)(=O)=O)cc2)CC1 (stereo not drawn)
observed.result: 8.64

compound: CC(C)(C)c1cc(CN2CC[C@@H](NC(=O)c3cccnc3)[C@H](O)C2)n[nH]1
observed.result: 17.7

compound: CC(C)c1cc2c(O)nc(CSCC(=O)O)nc2s1
observed.result: -2.99

compound: COCc1cccc(NC(C)C(=O)N(C)Cc2ccccc2)c1 (stereo not drawn)
observed.result: 33.5

compound: Cc1cccc(OCCC(=O)NCC(C)(C)C(N)=O)c1
observed.result: 2.68

compound: Cc1ccc(CNC(=O)NCc2csc(C)n2)cn1
observed.result: 8.37

Any idea what Percent Effect came out for "Cc1nc(CC(=O)N2CCC[C@H]2c2nc(C(C)C)no2)cs1" on Arginase-2, mitochondrial (Homo sapiens) (UniProt P78540)?
3.09

// lookup Percent Effect | system=Arginase-2, mitochondrial (Homo sapiens) (UniProt P78540) | key= "Cc1cc(CN(C)Cc2cc3c(cc2OC(F)F)OCO3)on1"
3.23

Give Percent Effect (Arginase-2, mitochondrial (Homo sapiens) (UniProt P78540)) of the following compound: "CC1CCN(S(=O)(=O)NCc2ccccc2Cn2cncn2)CC1"
3.23

Observed Percent Effect on Arginase-2, mitochondrial (Homo sapiens) (UniProt P78540) for Cc1cc(CNC(=O)C2CCCCN2C(=O)OC(C)(C)C)no1 (stereo not drawn) , please.
0.744

Value wanted: Percent Effect (Arginase-2, mitochondrial (Homo sapiens) (UniProt P78540)) of entry COc1ccc(-n2ccc(C(=O)NCCN3CCCCC3C)n2)cc1 (stereo not drawn)
-6.01
